Assign pEC50 to each entry below.
Test system: Poliovirus 1
Test: Antiviral activity against Human poliovirus 1 10691 infected in human HeLa cells assessed as reduction in virus-induced cytopathic effect after 72 hrs by crystal violet staining-based assay
Format: functional, organism-based
Conditions: Enterovirus C, 10691, HeLa
Quick note: pEC50 values are minus log10 of concentrations in mol/L.

Problem: Consider the compound Cc1ccc(C(=O)CCC/C=C/c2ccc(C3=NCCO3)cc2)s1 and give its measured pEC50.
Result: 6.01

Problem: Now the compound Cc1ccc(C(=O)CCCCSc2ccc(C3=NCCO3)cc2)s1
Result: 6.25

Problem: Now the compound Cc1ccc(C(=O)CCCCOc2ccc(C3=NCCO3)cc2)s1
Result: 4.17
